Assay: yeast display, Sf9 membrane polyspecificity reagent, FACS + sequencing; frameworks hold sequencing errors
Experimental Readout: polyreactivity (PSR sort gate)

[[record]]
sequence = "QVQLVESGGGLVQAGGSLRLSCAASGRIFTGYAMGWYRQAPGKERELVAAINSGGRTNYADSVKGRFTISRDNAKNTVYLQMNSLKPEDTAVYYCAARYTNYGGYYWGQGTQVTVSS"
experimental_readout = "polyreactivity (PSR sort gate)"
result = "high polyreactivity"

[[record]]
sequence = "QVQLVESGGGLVQAGGSLRLSCAASGFIFDAYAMGWYRQAPGKERELVAAISSRGGSTYYADSVKGRFTISRDNAKNTVYLQMNSLKPEDTAVYYCAAPWYQGLDYWGQGTQVTVSS"
experimental_readout = "polyreactivity (PSR sort gate)"
result = "high polyreactivity"

[[record]]
sequence = "QVQLVESGGGLVQAGGSLRLSCAASGFIFEDYAMGWYRQAPGKERELVAAIRSNDDSTYYADSVKGRFTISRDNSKNTVYLHMNSLKPEDTAVYYCNKGLRRWSTRSHYYYWGQGTQVTVSS"
experimental_readout = "polyreactivity (PSR sort gate)"
result = "high polyreactivity"


---

Assay: yeast display, Sf9 membrane polyspecificity reagent, FACS + sequencing; frameworks hold sequencing errors
Experimental Readout: polyreactivity (PSR sort gate)

[[record]]
sequence = "QVQLVESGGGLVQAGGSIRLSCAASGSIFLGYAMGSYRQATGKETELFAAISSGGTRTYYADSVKGRFTITRDNAKNTVYLQMNCLKPEDTAVYYCSARYIPIQYPSYRTWGGYSWGQGTQVTVSS"
result = "high polyreactivity"

[[record]]
sequence = "QVQLVESGGGLVQAGGSLRLSCAASGGIFASNAMGWYRQAPGKERELVATITRGGSTNYADSVKGRFTISRDNAKNTVYLQMNSLKPEDTAVYYCAARFYSRAFWTAYYYWGQGTQVTVSS"
result = "high polyreactivity"

[[record]]
sequence = "QVQLVESGGGLVQAGGSLRLSCAASGSIFTPNAMGWYRQAPGKERALVAAISSSSDRTYYADSVKGRFTISRDNAKNTVYLQMNSLKPEDTAVYYCAAYAQKRYYWGQGTQVTVSS"
result = "high polyreactivity"

[[record]]
sequence = "QVQLVESGGGLVQAGGSLRLSCAASGGILSDYAMGWYRQAPWKERELVAAITISGGRTNYADSVKGRFTISRDNAKNTVYLQMNSLKPEDTAVYYCAAGFYPYYYWGQGTQVTVSS"
result = "low polyreactivity"

[[record]]
sequence = "QVQLVESGGGLVQAGGSLRLSCAASGYTFYQNAMGWYRQAPGKERELVAAITFRTGSTYYADSVKGRFTISRDNAKNTVYLQMNSLKPEDTAVYYCAATRFLRDWWYGYWGQGTQVTVSS"
result = "low polyreactivity"

[[record]]
sequence = "QVQLVESGGGLVQAGGSLRLSCAASGSTFRYYAMGWYRQAPGKERQLVAAISYRGGSTKYADSVKGRFTISRDNAKNTVYLQMNSLKPEDTAVYYCAADSYYDSKRYYWGQGTQVTVSS"
result = "high polyreactivity"

[[record]]
sequence = "QVQLVESVGGLDQAGGSLRLSCAASGSIFVGYAMGWYRQAPGKERELVAAITRSGVSTYYADSVKGRFTISRDNAKNTVYLQMNSLKPEDTAVYYCAADPTYRYWRVPWYEYDYWGQGTQVTVSS"
result = "low polyreactivity"

[[record]]
sequence = "QGQLEESCGGLVQAGARLRISCEASGRTFRFYTMGGYRPAPGKEMELVAAISSNTGTTYADSVKGRFTISRDNAKNTVYLQMNSLKQEDTAVFFCAARVRRQYYNRPYYYWGQGTQVTVSS"
result = "high polyreactivity"

[[record]]
sequence = "QVQLVESGGGLVQAGGSLRLICAASGYTFYAYAMGWYRQAPGKERELVAAITSGSSTYYADSVKGRFTISRDNAKNTVYLQMNSLKQEDTAVYYCASRIRGWRLLTSYYWGQGTQVTVSS"
result = "low polyreactivity"

[[record]]
sequence = "QVQLVESGGGLVQAGGSLRLSCAASGFTFRYYAMGWYRQAPGKERELVASISRSGSTNYADSVKGRFTISRDNAKNTVYLQMNSLKPEDTAVYYCAAQLYSRGGYWGQGTQVTVSS"
result = "high polyreactivity"


Record summary for QVQLVESGGGLDQARGSLRLSCAASGSNFRYYAIGGYRPAHGKERELVASITGSGGRTYYADSVKGRFTISLDNAKNTVYLQMNSLKPEDTAVYYCAVPYHQGNMDYWGQGTQVTVSS : reported polyreactivity (PSR sort gate) = high polyreactivity
